Test: Toxicity in mouse LL/2 cells inoculated C57BL/6J mouse assessed as effect on body weight by measuring end body weight at 25 mg/kg, ip administered for 12 days and measured for every 2 days (reference value: 18.1 +/- 0.2 g)
Type: organism-based
Conditions: in vivo, 288 h, time 12 day
experimental_readout: Activity (g)

INSERT INTO results (structure_smiles_string, readout_number) VALUES
  ('O=C(NCCSSCCNC(=O)/C(Cc1ccc(O)c(Br)c1)=N/O)/C(Cc1ccc(O)c(Br)c1)=N/O', 18.4),
  ('O=C(CCNC(=O)/C(Cc1ccc(O)c(Br)c1)=N/O)NO', 18.4),
  ('O=C(NCCS)/C(Cc1ccc(O)c(Br)c1)=N/O', 18.3),
  ('O=C(CCCCCCC(=O)Nc1ccccc1)NO', 18.1);

----------
Test system: HL-60
Test: Growth inhibition of human HL-60 cells after 72 hrs by trypan blue dye based assay
Type: functional
Details: Homo sapiens, HL-60
experimental_readout: GI50 (µM)

INSERT INTO assay_data (compound, readout_number) VALUES
  ('O=C(NCCO)/C(Cc1ccc(O)c(Br)c1)=N/O', 20),
  ('CCCNC(=O)/C(Cc1ccc(O)c(Br)c1)=N/O', 13.5),
  ('O=C(NCCS)/C(Cc1ccc(O)c(Br)c1)=N/O', 0.68),
  ('CCCCNC(=O)/C(Cc1ccc(O)c(Br)c1)=N/O', 36),
  ('O=C(NCCSSCCNC(=O)/C(Cc1ccc(O)c(Br)c1)=N/O)/C(Cc1ccc(O)c(Br)c1)=N/O [PSAMMAPLIN A]', 0.37),
  ('O=C(O)CCNC(=O)/C(Cc1ccc(O)c(Br)c1)=N/O', 11.8);

----------
Target: Histone deacetylase 2 (Homo sapiens)
Sequence (Q92769 whole entry): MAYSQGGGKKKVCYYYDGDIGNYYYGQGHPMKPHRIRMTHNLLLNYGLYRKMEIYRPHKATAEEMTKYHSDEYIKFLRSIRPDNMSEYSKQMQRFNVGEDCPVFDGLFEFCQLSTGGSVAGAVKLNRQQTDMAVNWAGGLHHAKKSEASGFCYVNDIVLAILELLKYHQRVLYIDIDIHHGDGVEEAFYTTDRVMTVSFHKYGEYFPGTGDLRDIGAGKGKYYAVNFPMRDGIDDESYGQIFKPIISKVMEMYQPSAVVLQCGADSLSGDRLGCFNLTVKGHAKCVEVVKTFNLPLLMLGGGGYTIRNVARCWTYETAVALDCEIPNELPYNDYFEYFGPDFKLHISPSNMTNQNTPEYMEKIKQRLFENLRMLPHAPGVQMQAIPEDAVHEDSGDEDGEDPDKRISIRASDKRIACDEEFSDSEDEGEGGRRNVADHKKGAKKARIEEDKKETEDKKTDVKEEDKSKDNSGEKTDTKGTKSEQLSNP
Test: Inhibition of recombinant full length C-terminal FLAG-tagged human HDAC2 expressed in baculovirus infected Sf9 cells using Boc-Lys(Ac)-AMC as substrate preincubated for 15 mins followed by substrate addition and measured after 60 mins by fluorescence based assay
experimental_readout: IC50

INSERT INTO assay_data (structure_smiles_string, result) VALUES
  ('Nc1ccccc1NC(=O)CCCCNC(=O)/C(Cc1ccc(O)c(Br)c1)=N/O', '9.76 µM'),
  ('CCCNC(=O)/C(Cc1ccc(O)c(Br)c1)=N/O', '> 10 µM'),
  ('O=C(CCCCNC(=O)/C(Cc1ccc(O)c(Br)c1)=N/O)NO', '> 10 µM'),
  ('Nc1ccccc1NC(=O)CNC(=O)/C(Cc1ccc(O)c(Br)c1)=N/O', '> 10 µM'),
  ('Nc1ccccc1NC(=O)CCCNC(=O)/C(Cc1ccc(O)c(Br)c1)=N/O', '> 10 µM'),
  ('O=C(CCCNC(=O)/C(Cc1ccc(O)c(Br)c1)=N/O)NO', '> 10 µM'),
  ('Nc1ccccc1NC(=O)CCCCCCNC(=O)/C(Cc1ccc(O)c(Br)c1)=N/O', '> 1 µM'),
  ('O=C(CNC(=O)/C(Cc1ccc(O)c(Br)c1)=N/O)NO', '9.21 µM'),
  ('CCCCNC(=O)/C(Cc1ccc(O)c(Br)c1)=N/O', '> 10 µM'),
  ('O=C(NCCS)/C(Cc1ccc(O)c(Br)c1)=N/O', '0.21 µM'),
  ('O=C(NCCO)/C(Cc1ccc(O)c(Br)c1)=N/O', '> 10 µM'),
  ('Nc1ccccc1NC(=O)CCCCCCCNC(=O)/C(Cc1ccc(O)c(Br)c1)=N/O', '> 1 µM'),
  ('O=C(CCNC(=O)/C(Cc1ccc(O)c(Br)c1)=N/O)NO', '0.033 µM'),
  ('O=C(O)CCNC(=O)/C(Cc1ccc(O)c(Br)c1)=N/O', '> 10 µM'),
  ('Nc1ccccc1NC(=O)CCCCCNC(=O)/C(Cc1ccc(O)c(Br)c1)=N/O', '> 1 µM'),
  ('Nc1ccccc1NC(=O)CCNC(=O)/C(Cc1ccc(O)c(Br)c1)=N/O', '> 10 µM'),
  ('O=C(NCCSSCCNC(=O)/C(Cc1ccc(O)c(Br)c1)=N/O)/C(Cc1ccc(O)c(Br)c1)=N/O', '0.033 µM');

----------
Molecular target: Histone deacetylase 3/Nuclear receptor corepressor 2 (HDAC3/NCoR2) (Homo sapiens)
Assay: Inhibition of C-terminal His-tagged recombinant human HDAC3 (1 to 428 residues)/N-terminal GST-tagged recombinant human NCoR2 (395 to 489 residues) co-expressed in baculovirus infected Sf9 cells using Boc-Lys(Ac)-AMC as substrate preincubated for 15 mins followed by substrate addition and measured after 60 mins by fluorescence based assay
pIC50: −log10 of the molar value.
Measured pIC50, listed per entry.
experimental_readout: pIC50

INSERT INTO measurements (molecule, limit_qualifier, readout_number) VALUES
  ('CCCCNC(=O)/C(Cc1ccc(O)c(Br)c1)=N/O', '<', 5.00),
  ('Nc1ccccc1NC(=O)CCCNC(=O)/C(Cc1ccc(O)c(Br)c1)=N/O', '=', 5.74),
  ('Nc1ccccc1NC(=O)CNC(=O)/C(Cc1ccc(O)c(Br)c1)=N/O', '<', 5.00),
  ('O=C(CCCCNC(=O)/C(Cc1ccc(O)c(Br)c1)=N/O)NO', '=', 6.60),
  ('O=C(CNC(=O)/C(Cc1ccc(O)c(Br)c1)=N/O)NO', '=', 5.91),
  ('O=C(CCCNC(=O)/C(Cc1ccc(O)c(Br)c1)=N/O)NO', '<', 5.00),
  ('O=C(NCCS)/C(Cc1ccc(O)c(Br)c1)=N/O', '=', 6.92),
  ('Nc1ccccc1NC(=O)CCCCCCNC(=O)/C(Cc1ccc(O)c(Br)c1)=N/O', '=', 6.89),
  ('Nc1ccccc1NC(=O)CCCCNC(=O)/C(Cc1ccc(O)c(Br)c1)=N/O', '=', 5.84),
  ('O=C(NCCO)/C(Cc1ccc(O)c(Br)c1)=N/O', '<', 5.00),
  ('O=C(NCCSSCCNC(=O)/C(Cc1ccc(O)c(Br)c1)=N/O)/C(Cc1ccc(O)c(Br)c1)=N/O [PSAMMAPLIN A]', '=', 7.91);

----------
Target: Histone deacetylase 3/Nuclear receptor corepressor 2 (HDAC3/NCoR2) (Homo sapiens, UniProt O15379)
Sequence (O15379 whole entry, the tested form may be a part): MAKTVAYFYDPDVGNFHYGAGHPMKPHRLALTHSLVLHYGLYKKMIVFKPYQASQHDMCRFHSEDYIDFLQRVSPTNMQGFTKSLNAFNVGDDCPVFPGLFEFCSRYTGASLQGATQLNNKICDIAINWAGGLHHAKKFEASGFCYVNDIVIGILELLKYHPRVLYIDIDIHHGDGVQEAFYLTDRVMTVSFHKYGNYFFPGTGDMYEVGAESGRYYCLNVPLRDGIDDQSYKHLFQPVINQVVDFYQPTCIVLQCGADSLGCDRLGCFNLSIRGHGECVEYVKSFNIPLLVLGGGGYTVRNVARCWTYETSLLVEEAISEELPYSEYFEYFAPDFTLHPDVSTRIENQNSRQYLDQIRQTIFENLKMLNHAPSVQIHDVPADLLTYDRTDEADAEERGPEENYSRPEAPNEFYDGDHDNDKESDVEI
Sequence (Q9Y618 whole entry, further chain, the tested form may be a part): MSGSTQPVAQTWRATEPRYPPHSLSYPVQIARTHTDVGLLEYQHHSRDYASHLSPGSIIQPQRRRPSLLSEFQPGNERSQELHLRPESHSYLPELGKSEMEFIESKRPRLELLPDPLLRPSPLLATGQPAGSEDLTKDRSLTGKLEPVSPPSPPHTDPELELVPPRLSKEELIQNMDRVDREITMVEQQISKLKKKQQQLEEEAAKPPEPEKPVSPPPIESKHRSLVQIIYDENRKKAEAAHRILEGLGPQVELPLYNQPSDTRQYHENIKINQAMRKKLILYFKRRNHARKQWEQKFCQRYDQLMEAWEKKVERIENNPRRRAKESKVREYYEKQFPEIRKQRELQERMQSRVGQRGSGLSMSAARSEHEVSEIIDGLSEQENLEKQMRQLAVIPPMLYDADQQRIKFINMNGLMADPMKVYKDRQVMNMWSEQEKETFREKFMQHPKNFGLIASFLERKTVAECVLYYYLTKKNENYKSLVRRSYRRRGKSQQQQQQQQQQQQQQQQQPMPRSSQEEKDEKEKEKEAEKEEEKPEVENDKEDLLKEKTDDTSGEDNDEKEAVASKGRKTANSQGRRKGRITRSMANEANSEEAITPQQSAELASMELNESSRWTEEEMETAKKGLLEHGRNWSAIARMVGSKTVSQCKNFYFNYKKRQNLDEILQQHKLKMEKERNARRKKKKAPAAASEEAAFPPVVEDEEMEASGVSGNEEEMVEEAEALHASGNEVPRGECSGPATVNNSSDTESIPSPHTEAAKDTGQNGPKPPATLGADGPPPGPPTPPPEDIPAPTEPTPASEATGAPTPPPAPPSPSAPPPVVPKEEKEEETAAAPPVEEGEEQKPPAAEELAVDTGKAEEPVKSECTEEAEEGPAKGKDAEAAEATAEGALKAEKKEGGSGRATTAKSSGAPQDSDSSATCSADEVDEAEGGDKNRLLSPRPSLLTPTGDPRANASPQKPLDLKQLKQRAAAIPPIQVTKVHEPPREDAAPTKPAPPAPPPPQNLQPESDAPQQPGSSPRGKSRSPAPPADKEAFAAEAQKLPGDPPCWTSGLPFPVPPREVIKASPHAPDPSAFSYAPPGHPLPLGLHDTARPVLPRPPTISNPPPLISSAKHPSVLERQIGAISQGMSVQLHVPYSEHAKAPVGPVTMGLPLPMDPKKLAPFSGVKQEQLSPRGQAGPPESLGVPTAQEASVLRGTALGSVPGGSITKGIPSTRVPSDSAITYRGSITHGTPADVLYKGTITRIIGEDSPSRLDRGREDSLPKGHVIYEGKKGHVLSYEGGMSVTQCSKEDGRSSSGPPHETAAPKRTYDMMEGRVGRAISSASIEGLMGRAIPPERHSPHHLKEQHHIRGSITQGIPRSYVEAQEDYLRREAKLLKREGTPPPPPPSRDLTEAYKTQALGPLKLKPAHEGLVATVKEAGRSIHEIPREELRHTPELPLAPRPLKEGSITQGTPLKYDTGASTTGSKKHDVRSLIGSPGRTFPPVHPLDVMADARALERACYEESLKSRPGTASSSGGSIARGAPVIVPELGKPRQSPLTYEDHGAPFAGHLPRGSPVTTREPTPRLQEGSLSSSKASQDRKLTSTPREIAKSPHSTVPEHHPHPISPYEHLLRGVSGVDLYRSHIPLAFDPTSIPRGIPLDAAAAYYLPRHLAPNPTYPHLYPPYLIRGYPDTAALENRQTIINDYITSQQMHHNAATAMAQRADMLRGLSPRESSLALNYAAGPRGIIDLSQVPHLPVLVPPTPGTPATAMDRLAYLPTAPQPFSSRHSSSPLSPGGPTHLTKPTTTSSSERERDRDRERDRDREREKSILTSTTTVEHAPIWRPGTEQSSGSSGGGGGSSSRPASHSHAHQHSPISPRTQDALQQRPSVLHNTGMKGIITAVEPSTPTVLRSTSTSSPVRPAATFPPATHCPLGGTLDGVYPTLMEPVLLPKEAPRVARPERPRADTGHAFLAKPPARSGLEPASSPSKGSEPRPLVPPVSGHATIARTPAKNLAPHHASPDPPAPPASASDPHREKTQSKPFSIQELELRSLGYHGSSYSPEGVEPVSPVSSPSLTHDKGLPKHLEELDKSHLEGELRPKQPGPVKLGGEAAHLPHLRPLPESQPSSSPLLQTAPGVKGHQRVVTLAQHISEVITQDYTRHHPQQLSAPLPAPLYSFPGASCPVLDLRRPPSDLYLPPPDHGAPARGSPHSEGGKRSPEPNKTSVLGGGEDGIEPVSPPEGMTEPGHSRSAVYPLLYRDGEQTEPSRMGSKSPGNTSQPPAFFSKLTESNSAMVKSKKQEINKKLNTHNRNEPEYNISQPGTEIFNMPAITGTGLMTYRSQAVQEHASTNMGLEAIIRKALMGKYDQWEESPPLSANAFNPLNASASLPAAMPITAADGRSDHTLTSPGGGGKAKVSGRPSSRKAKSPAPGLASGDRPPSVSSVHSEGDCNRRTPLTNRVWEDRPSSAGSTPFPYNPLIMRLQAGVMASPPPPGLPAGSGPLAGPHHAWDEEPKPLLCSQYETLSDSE
Assay: Inhibition of C-terminal His-tagged recombinant human HDAC3 (1 to 428 residues)/N-terminal GST-tagged recombinant human NCoR2 (395 to 489 residues) co-expressed in baculovirus infected Sf9 cells using Boc-Lys(Ac)-AMC as substrate preincubated for 15 mins followed by substrate addition and measured after 60 mins by fluorescence based assay
experimental_readout: IC50

INSERT INTO assay_data (structure_smiles_string, experimental_readout, result) VALUES
  ('Nc1ccccc1NC(=O)CCCCCCCNC(=O)/C(Cc1ccc(O)c(Br)c1)=N/O', 'IC50', '170 nM'),
  ('O=C(O)CCNC(=O)/C(Cc1ccc(O)c(Br)c1)=N/O', 'IC50', '> 10000 nM'),
  ('O=C(CCNC(=O)/C(Cc1ccc(O)c(Br)c1)=N/O)NO', 'IC50', '20 nM'),
  ('Nc1ccccc1NC(=O)CCCCCNC(=O)/C(Cc1ccc(O)c(Br)c1)=N/O', 'IC50', '180 nM'),
  ('Nc1ccccc1NC(=O)CCNC(=O)/C(Cc1ccc(O)c(Br)c1)=N/O', 'IC50', '> 10000 nM'),
  ('CCCNC(=O)/C(Cc1ccc(O)c(Br)c1)=N/O', 'IC50', '> 10000 nM');

----------
Measured IC50, listed per entry.
Molecular target: Protein deacetylase HDAC6 (Homo sapiens)
Sequence (Q9UBN7 whole entry): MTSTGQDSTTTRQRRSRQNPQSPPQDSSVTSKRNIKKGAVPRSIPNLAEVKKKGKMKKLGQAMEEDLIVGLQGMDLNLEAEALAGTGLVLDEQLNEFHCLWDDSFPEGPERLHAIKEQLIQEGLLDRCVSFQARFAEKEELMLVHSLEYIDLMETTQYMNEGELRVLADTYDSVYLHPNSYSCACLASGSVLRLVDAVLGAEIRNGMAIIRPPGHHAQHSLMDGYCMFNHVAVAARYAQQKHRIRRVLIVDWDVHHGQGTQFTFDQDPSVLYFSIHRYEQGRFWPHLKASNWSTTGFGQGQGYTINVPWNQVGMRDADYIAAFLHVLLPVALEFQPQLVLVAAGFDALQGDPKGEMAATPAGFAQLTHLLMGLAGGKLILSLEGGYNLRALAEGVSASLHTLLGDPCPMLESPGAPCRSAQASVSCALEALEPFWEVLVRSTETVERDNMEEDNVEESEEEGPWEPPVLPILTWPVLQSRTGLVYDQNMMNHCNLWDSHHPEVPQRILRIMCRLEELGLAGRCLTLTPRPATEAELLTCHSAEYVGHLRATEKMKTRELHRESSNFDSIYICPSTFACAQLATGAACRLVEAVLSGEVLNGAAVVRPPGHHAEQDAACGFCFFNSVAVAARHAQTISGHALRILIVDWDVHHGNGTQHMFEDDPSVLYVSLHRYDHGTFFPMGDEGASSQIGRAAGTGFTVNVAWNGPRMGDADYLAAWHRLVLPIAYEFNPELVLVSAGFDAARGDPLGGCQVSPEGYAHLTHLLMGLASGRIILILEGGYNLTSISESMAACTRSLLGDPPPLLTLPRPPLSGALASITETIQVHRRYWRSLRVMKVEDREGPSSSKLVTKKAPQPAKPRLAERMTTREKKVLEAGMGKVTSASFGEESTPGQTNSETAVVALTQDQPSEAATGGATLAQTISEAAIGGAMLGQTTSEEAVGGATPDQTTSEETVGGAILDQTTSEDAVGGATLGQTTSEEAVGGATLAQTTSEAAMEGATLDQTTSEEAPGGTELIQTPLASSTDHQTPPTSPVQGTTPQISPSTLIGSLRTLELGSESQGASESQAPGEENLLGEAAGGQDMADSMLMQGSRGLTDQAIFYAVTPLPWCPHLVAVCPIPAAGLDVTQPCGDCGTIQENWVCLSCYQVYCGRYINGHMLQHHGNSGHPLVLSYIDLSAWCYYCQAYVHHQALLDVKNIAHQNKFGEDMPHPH
Assay: Inhibition of recombinant full length C-terminal FLAG-tagged human HDAC6 expressed in baculovirus infected Sf9 cells using Boc-Lys(Ac)-AMC as substrate preincubated for 15 mins followed by substrate addition and measured after 60 mins by fluorescence based assay
experimental_readout: IC50

INSERT INTO results (structure_smiles_string, experimental_readout, result) VALUES
  ('CCCNC(=O)/C(Cc1ccc(O)c(Br)c1)=N/O', 'IC50', '> 10 µM'),
  ('O=C(NCCO)/C(Cc1ccc(O)c(Br)c1)=N/O', 'IC50', '> 10 µM'),
  ('Nc1ccccc1NC(=O)CNC(=O)/C(Cc1ccc(O)c(Br)c1)=N/O', 'IC50', '> 10 µM'),
  ('O=C(CCCNC(=O)/C(Cc1ccc(O)c(Br)c1)=N/O)NO', 'IC50', '> 10 µM'),
  ('Nc1ccccc1NC(=O)CCCCCCCNC(=O)/C(Cc1ccc(O)c(Br)c1)=N/O', 'IC50', '> 1 µM'),
  ('O=C(CNC(=O)/C(Cc1ccc(O)c(Br)c1)=N/O)NO', 'IC50', '> 10 µM');
